- ASSAY TEXT: MTT test compound cytotoxicity in human foreskin fibroblasts
- Type: cell-based
- REPORTED CONDITIONS: hff cells, 0.0032 μM, read-out: MTT assay (Percent of control)
TEST READOUT: viability at 0.0032 µM (%)
Write down the numeric answer in % and omit the unit.

Task item: Query viability at 0.0032 µM for O=c1[nH]c(=O)n([C@@H]2O[C@H](CO)[C@H]2CO)cc1C=CBr
Reply: 100

====

Listing of entries alongside the reported viability at 0.032 µM.
- ASSAY TEXT: MTT test compound cytotoxicity in human foreskin fibroblasts
- Format: cell-based
- REPORTED CONDITIONS: hff cells, 0.032 μM, read-out: MTT assay (Percent of control)
- Description: For the plaque reduction assay, sixth to twelfth passage human foreskin fibroblasts were seeded in wells of 12-well tissue culture plates and incubated at 37° C. in a humidified atmosphere containing 2% CO2 in air. […] The test compound cytotoxicity control cultures were examined microscopically for gross morphologic changes, then treated with MTT and 30% SDS. The blue color of the MTT formazan was measured spectrophotometrically at 570 nm. […]
Write down the numeric answer in % and omit the unit.

Some solved entries appear below for comparison.
> print(dat)
                           smiles.structure           test.readout  u  numeric.result
1  O=c1[nH]c(=O)n([C@@H]2O[C@H](CO)[C@H]2CO)cc1C=CBr  viability at 0.032 µM  %              94
2  O=c1[nH]c(=O)n([C@@H]2O[C@H](CO)[C@H]2CO)cc1Br  viability at 0.032 µM  %             100

# input for lookup
Task item: Query viability at 0.032 µM for CC#Cc1cn([C@@H]2O[C@H](CO)[C@H]2CO)c(=O)[nH]c1=O
Reply: 100
